IC80 (µg/ml) with constrains values by entry
- TARGET DESC: HIV Env of isolate 191084B7-19 (clade A) (HIV)
- METHOD SUMMARY: cell-based or functional assay
RECORDED ENDPOINT: IC80 (µg/ml) with constrains (µg/mL)

PGDM1400 (antibody, V domains shown) VH: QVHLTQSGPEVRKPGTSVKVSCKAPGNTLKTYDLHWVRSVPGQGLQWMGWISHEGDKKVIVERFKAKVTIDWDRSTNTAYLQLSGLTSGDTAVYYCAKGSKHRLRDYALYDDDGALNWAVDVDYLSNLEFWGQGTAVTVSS VL: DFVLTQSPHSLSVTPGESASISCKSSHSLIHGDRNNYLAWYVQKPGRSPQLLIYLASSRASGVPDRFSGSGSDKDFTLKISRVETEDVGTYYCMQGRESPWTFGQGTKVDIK = 0.008
ePGDM5 (antibody, V domains shown) VH: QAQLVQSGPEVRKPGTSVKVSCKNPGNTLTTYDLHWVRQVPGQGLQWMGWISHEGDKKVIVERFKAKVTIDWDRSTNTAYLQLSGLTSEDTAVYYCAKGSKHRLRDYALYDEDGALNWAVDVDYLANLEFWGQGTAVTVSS VL: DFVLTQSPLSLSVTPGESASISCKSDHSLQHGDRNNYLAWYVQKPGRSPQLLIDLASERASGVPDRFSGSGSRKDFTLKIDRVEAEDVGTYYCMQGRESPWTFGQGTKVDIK = 0.005
ePGDM13 (antibody, V domains shown) VH: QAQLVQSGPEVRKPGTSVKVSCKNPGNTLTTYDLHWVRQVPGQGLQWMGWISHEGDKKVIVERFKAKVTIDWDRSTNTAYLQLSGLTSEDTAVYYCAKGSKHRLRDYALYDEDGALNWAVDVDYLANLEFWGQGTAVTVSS VL: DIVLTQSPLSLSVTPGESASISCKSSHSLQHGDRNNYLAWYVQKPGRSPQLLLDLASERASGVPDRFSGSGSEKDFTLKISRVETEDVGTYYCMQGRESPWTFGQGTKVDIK = 0.003
